Molecular target: µ opioid receptor (MOR) (Homo sapiens, UniProt P35372)
Sequence (P35372 whole entry): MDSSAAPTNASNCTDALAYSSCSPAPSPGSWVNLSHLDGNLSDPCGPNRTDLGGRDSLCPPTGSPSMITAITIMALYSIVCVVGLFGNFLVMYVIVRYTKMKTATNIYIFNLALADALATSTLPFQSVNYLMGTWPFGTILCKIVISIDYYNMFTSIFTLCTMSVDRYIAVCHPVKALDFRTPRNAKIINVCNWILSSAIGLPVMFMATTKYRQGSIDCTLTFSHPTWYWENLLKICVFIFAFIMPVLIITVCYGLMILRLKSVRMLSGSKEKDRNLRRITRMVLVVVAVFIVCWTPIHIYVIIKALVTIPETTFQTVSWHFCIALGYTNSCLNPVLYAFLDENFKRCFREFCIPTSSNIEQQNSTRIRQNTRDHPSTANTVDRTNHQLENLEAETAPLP
Test: Radioligand competition binding, MOR ([3H]-DAMGO), HEK293 cell homogenates
readout.name: Ki (µM)

>>> print(df.to_string())
                         compound_structure                                       tgt  readout_name  result_units  test_result
0  C#Cc1ccc2c(c1)C(c1ccccc1F)=N[C@@H](C)c1c(C(=O)OC(C)(C)C)ncn1-2  µ opioid receptor (MOR) (Homo sapiens, UniProt P35372)            Ki            µM         1.85
